Molecular target: recombinant soluble tissue factor and recombinant human factor VIIa (TF-VIIa) (Homo sapiens)
Construct: conversion of coagulation factor VII to VIIa by factor Xa
Experiment: TF-VIIa assay (chromogenic substrate hydrolysis)
Conditions: reported only as less than or greater than 0.1 uM
pIC50: −log10 of the molar value.
Quantity Kind: pIC50

In [3]: df
Out[3]:
                                    compound  result
 0  CC(C)Nc1ncc(-c2cc(N)cc(C(=O)NCc3ccc(F)c(O)c3)c2)n(CC(=O)NCc2ccc(C(=N)N)cc2)c1=O.O=C(O)C(F)(F)F  > 7.00
 1  COCCNC(=O)c1cc(N)cc(-c2cnc(NC(C)C)c(=O)n2CC(=O)NCc2ccc(C(=N)N)cc2)c1 [Example 26]  > 7.00
 2  CC(C)Nc1ncc(-c2cc(N)cc(C(F)(F)F)c2)n(CC(=O)NCc2c(F)c(O)c(C(=N)N)c(F)c2F)c1=O [Example 65]  < 7.00
 3  CC[C@@H](C)NC(=O)c1cc(N)cc(-c2cnc(NC(C)C)c(=O)n2CC(=O)NCc2ccc(C(=N)N)cc2O)c1.O=C(O)C(F)(F)F  > 7.00
 4  CCCC(C)C(=O)Nc1cc(N)cc(-c2cnc(NC(C)C)c(=O)n2CC(=O)NCc2ccc(C(=N)N)cc2)c1 (centres unmarked)  > 7.00
 5  CCNC(=O)c1cc(N)cc(-c2cnc(NC(C)C)c(=O)n2CC(=O)NCc2ccc(C(=N)N)cc2)c1  > 7.00
 6  CC(C)Nc1ncc(-c2cc(N)cc(S(=O)(=O)CC(C)(C)C)c2)n(CC(=O)NCc2ccc(C(=N)N)cc2)c1=O.O=C(O)C(F)(F)F.O=C(O)C(F)(F)F  > 7.00
 7  CC[C@H](C)NC(=O)c1cc(N)cc(-c2cnc(NC(C)C)c(=O)n2CC(=O)NCc2c(OC)cc(C(=N)N)cc2OC)c1  < 7.00
 8  CC(C)Nc1ncc(-c2cc(N)cc(C(=O)NCCN3CCCC3)c2)n(CC(=O)NCc2ccc(C(=N)N)cc2)c1=O  > 7.00
 9  CC[C@@H](C)NC(=O)c1cc(N)cc(-c2cnc(NC3CC3)c(=O)n2CC(=O)NCc2ccc(C(=N)N)cc2)c1  > 7.00
10  CC(C)Nc1ncc(-c2cc(N)cc(C(=O)NC3CCCCCC3)c2)n(CC(=O)NCc2ccc(C(=N)N)cc2)c1=O  > 7.00
11  CC[C@H](C)NC(=O)c1cc(N)cc(-c2cnc(N[C@@H](C)CO)c(=O)n2CC(=O)NCc2ccc(C(=N)N)cc2)c1  > 7.00
12  CCOC(=O)c1cc(N)cc(-c2cnc(NC(C)C)c(=O)n2CC(=O)NCc2ccc(C(=N)N)cc2)c1  > 7.00
13  CC[C@@H](C)NC(=O)c1cc(N)cc(-c2cnc(NC(C)C)c(=O)n2CC(=O)NCc2ccc(C(=N)N)cc2)c1  > 7.00
14  CC[C@H](C)NC(=O)c1cc(N)cc(-c2cnc(NC(C)C)c(=O)n2CC(=O)NCc2ccc(C(=N)N)cc2O)c1.O=C(O)C(F)(F)F  > 7.00
15  COC(=O)c1cc(N)cc(-c2cnc(NC(C)C)c(=O)n2CC(=O)NCc2ccc(C(=N)N)c(O)c2)c1  < 7.00
16  CC(C)Nc1ncc(-c2cc(N)cc(NC(=O)CCC3CCCC3)c2)n(CC(=O)NCc2ccc(C(=N)N)cc2)c1=O  > 7.00
17  CC(C)Nc1ncc(-c2cc(N)cc(-c3nnn[nH]3)c2)n(CC(=O)NCc2ccc(C(=N)N)cc2)c1=O.O=C(O)C(F)(F)F  > 7.00
18  CC(C)Nc1ncc(-c2cc(N)cc(OC3Cc4ccccc4C3)c2)n(CC(=O)NCc2ccc(C(=N)N)cc2)c1=O.O=C(O)C(F)(F)F.O=C(O)C(F)(F)F  > 7.00
19  CC(C)Nc1ncc(-c2cc(N)cc(NCCCc3ccccc3)c2)n(CC(=O)NCc2ccc(C(=N)N)cc2)c1=O  > 7.00
20  CCC(CC)S(=O)(=O)c1cc(N)cc(-c2cnc(NC(C)C)c(=O)n2CC(=O)NCc2ccc(C(=N)N)cc2)c1.O=C(O)C(F)(F)F.O=C(O)C(F)(F)F  > 7.00
21  CC(C)Nc1ncc(-c2cc(N)cc(OC(C)C)c2)n(CC(=O)NCc2ccc(C(=N)N)cc2)c1=O.O=C(O)C(F)(F)F.O=C(O)C(F)(F)F  > 7.00
22  CC(C)Nc1ncc(-c2cc(N)cc(C(=O)NC(C)(C)c3ccccc3)c2)n(CC(=O)NCc2ccc(C(=N)N)cc2)c1=O  > 7.00
23  COc1cc(N)cc(-c2cnc(NC(C)C)c(=O)n2CC(=O)NCc2cc(O)c(C(=N)N)c(F)c2)c1.Cl.Cl  > 7.00
24  CCCC(CCC)C(=O)Nc1cc(N)cc(-c2cnc(NC(C)C)c(=O)n2CC(=O)NCc2ccc(C(=N)N)cc2)c1.O=C(O)C(F)(F)F.O=C(O)C(F)(F)F  > 7.00
25  CC(C)Nc1nc(Cl)c(-c2cc(N)ccc2SCc2ccccc2)n(CC(=O)NCc2ccc(C(=N)N)cc2)c1=O  < 7.00

---

Biological target: recombinant soluble tissue factor and recombinant human factor VIIa (TF-VIIa) (Homo sapiens, UniProt P08709)
Construct: conversion of coagulation factor VII to VIIa by factor Xa; purchased American Diagnostica, Greenwich CT; host or cells: soluble TF made in house in E. coli
Sequence (P08709 213-466 limits assumed): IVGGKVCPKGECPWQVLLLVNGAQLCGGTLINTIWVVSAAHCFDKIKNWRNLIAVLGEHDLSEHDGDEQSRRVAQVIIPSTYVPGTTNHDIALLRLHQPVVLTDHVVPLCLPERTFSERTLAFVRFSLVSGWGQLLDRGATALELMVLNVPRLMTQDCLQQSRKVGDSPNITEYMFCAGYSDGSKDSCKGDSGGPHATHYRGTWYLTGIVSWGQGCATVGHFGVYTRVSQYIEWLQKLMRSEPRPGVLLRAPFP
Sequence (P08709 61-212 limits assumed): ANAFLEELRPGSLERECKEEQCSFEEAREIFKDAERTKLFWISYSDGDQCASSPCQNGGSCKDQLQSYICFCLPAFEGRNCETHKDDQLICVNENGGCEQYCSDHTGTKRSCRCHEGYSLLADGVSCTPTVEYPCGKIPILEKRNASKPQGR
Sequence (P13726 33-251 partner limits assumed): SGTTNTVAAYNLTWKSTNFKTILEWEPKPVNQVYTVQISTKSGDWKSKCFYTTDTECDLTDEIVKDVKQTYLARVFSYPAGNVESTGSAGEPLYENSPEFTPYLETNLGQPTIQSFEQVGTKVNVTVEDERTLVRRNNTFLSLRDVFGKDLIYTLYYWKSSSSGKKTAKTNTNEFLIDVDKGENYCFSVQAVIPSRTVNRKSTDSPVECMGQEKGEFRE
Test: TF-VIIa assay (chromogenic substrate hydrolysis)
Type: biochemical
Settings: reported only as less than or greater than 0.1 uM
pIC50: −log10 of the molar value.
Quantity Kind: pIC50

>>> print(df.to_string())
                                   molecule  quantity_kind  result
0  CC(C)C[S+]([O-])c1cc(N)cc(-c2cnc(NC(C)C)c(=O)n2CC(=O)NCc2ccc(C(=N)N)cc2)c1 (stereo not drawn)          pIC50  > 7.00
1  CC[C@@H](C)NC(=O)c1cc(N)cc(-c2cnc(NC(C)C)c(=O)n2CC(=O)NCc2c(O)cc(C(=N)N)cc2OC)c1          pIC50  > 7.00
2  CC(C)Nc1ncc(-c2cc(N)cc(C(=O)NCc3ccc(F)cc3)c2)n(CC(=O)NCc2ccc(C(=N)N)c(O)c2)c1=O.O=C(O)C(F)(F)F          pIC50  > 7.00
3  CC(C)Nc1ncc(-c2cc(N)cc(C(=O)NCc3cccc(C(F)(F)F)c3)c2)n(CC(=O)NCc2ccc(C(=N)N)cc2)c1=O.O=C(O)C(F)(F)F.O=C(O)C(F)(F)F          pIC50  > 7.00
4  CC(C)Nc1ncc(-c2cc(N)cc(NCc3ccccc3)c2)n(CC(=O)NCc2ccc(C(=N)N)cc2)c1=O          pIC50  > 7.00
5  CNc1ncc(-c2cc(N)cc(C(=O)OC)c2)n(CC(=O)NCc2ccc(C(=N)N)cc2)c1=O          pIC50  < 7.00

---

The entries below are paired with their reported IC50.
Target: Human thrombin (Homo sapiens)
Construct: converts prothrombin (II) to thrombin (IIa); purchased Calbiochem, La Jolla, Calif
Experiment: Thrombin assay (chromogenic substrate)
Format: biochemical
Settings: reported only as less than or greater than 30 uM; read-out: Thrombin (II) IC50
Counter-ions that a name gives are not always drawn.

Molecule	IC50
CC[C@H](C)NC(=O)c1cc(N)cc(-c2cnc(NC(C)C)c(=O)n2CC(=O)NCc2ccc(C(=N)N)cc2)c1.O=C(O)C(F)(F)F [Example 127]	< 30 µM
CC(C)Nc1ncc(-c2cc(N)cc(C(=O)NCCO)c2)n(CC(=O)NCc2ccc(C(=N)N)cc2)c1=O [Example 30]	> 30 µM
COCCOCCOCCOC(=O)c1cc(N)cc(-c2cnc(NC(C)C)c(=O)n2CC(=O)NCc2ccc(C(=N)N)cc2)c1 [Example 200]	> 30 µM
CC(C)Nc1ncc(-c2cc(N)cc(NC(=O)c3ccccc3)c2)n(CC(=O)NCc2ccc(C(=N)N)cc2)c1=O [Example 109]	< 30 µM
CC[C@@H](C)NC(=O)c1cc(N)cc(-c2cnc(NC(C)C)c(=O)n2CC(=O)NCc2c(O)cc(C(=N)N)cc2OC)c1 [Example 198]	> 30 µM
CNc1ncc(-c2cc(N)cc(C(=O)O)c2)n(CC(=O)NCc2ccc(C(=N)N)cc2)c1=O [Example 37]	> 30 µM
CCCCOc1cc(N)cc(-c2cnc(NC(C)C)c(=O)n2CC(=O)NCc2ccc(C(=N)N)cc2)c1.O=C(O)C(F)(F)F.O=C(O)C(F)(F)F [Example 222]	> 30 µM
CC(C)Nc1ncc(-c2cc(N)cc(NCCc3ccccc3)c2)n(CC(=O)NCc2ccc(C(=N)N)cc2)c1=O [Example 110, trifluoroacetate]	> 30 µM
CNc1ncc(-c2cc(N)cc(C(=O)OC)c2)n(CC(=O)NCc2ccc(C(=N)N)cc2)c1=O [Example 36]	> 30 µM
CC(C)Nc1ncc(-c2cc(N)cc(NS(=O)(=O)c3ccccc3C(F)(F)F)c2)n(CC(=O)NCc2ccc(C(=N)N)cc2)c1=O [Example 89]	> 30 µM
COc1c(N)cc(CC(=O)O)cc1-c1cnc(NC(C)C)c(=O)n1CC(=O)NCc1ccc(C(=N)N)cc1 [Example 23]	> 30 µM
CC(C)Nc1ncc(-c2cc(N)cc(NC(=O)CCc3ccccc3)c2)n(CC(=O)NCc2ccc(C(=N)N)cc2)c1=O [Example 106]	> 30 µM
COc1cc(N)cc(-c2cnc(NC(C)C)c(=O)n2CC(=O)NCc2cc(O)c(C(=N)N)c(F)c2)c1.Cl.Cl [Example 123]	> 30 µM
CC(C)Nc1ncc(-c2cc(N)cc(C(F)(F)F)c2)n(CC(=O)NCc2ccc(C(=N)N)s2)c1=O [Example 67]	> 30 µM
CC(C)Nc1ncc(-c2cc(N)cc(O)c2)n(CC(=O)NCc2ccc(C(=N)N)c(O)c2)c1=O.O=C(O)C(F)(F)F [Example 181]	> 30 µM
CC(C)Nc1ncc(-c2cc(N)cc(C(=O)NC3CCC3)c2)n(CC(=O)NCc2ccc(C(=N)N)cc2)c1=O.O=C(O)C(F)(F)F.O=C(O)C(F)(F)F [Example 15]	< 30 µM
CC[C@H](C)NC(=O)c1cc(N)cc(-c2cnc(NC(C)C)c(=O)n2CC(=O)NCc2ccc(C(=N)N)c(O)c2F)c1 [Example 173]	> 30 µM
CC(C)Nc1ncc(-c2cc(N)cc(NC(=O)[C@H]3C[C@@H]3c3ccccc3)c2)n(CC(=O)NCc2ccc(C(=N)N)cc2)c1=O.O=C(O)C(F)(F)F.O=C(O)C(F)(F)F [Example 140]	< 30 µM
CCCC(C)C(=O)Nc1cc(N)cc(-c2cnc(NC(C)C)c(=O)n2CC(=O)NCc2ccc(C(=N)N)cc2)c1.O=C(O)C(F)(F)F.O=C(O)C(F)(F)F (centres unmarked) [Example 128]	> 30 µM
CC(C)Nc1ncc(-c2cc(N)cc(OCC3CCCC3)c2)n(CC(=O)NCc2ccc(C(=N)N)cc2)c1=O.O=C(O)C(F)(F)F.O=C(O)C(F)(F)F [Example 220]	> 30 µM
CC[C@@H](C)NC(=O)c1cc(N)cc(-c2cnc(NC(C)C)c(=O)n2CC(=O)NCc2ccc(C(=N)N)cc2)c1 [Example 72]	< 30 µM
CC(C)Nc1ncc(-c2cc(N)cc(C(F)(F)F)c2)n(CC(=O)NCc2ccc(C(=N)N)c(O)c2)c1=O [Example 49]	> 30 µM
CC(C)Nc1ncc(-c2cc(N)cc(NS(=O)(=O)CCc3ccccc3)c2)n(CC(=O)NCc2ccc(C(=N)N)cc2)c1=O [Example 95]	> 30 µM
CC(C)NC(=O)c1cc(N)cc(-c2cnc(NC(C)C)c(=O)n2CC(=O)NCc2ccc(C(=N)N)cc2)c1 [Example 60]	< 30 µM
CCCCOC(=O)c1cc(N)cc(-c2cnc(NC(C)C)c(=O)n2CC(=O)NCc2ccc(C(=N)N)cc2)c1.O=C(O)C(F)(F)F [Example 187]	> 30 µM
CC[C@H](C)NC(=O)c1cc(N)cc(-c2cnc(NC(C)C)c(=O)n2CC(=O)NCc2c(O)cc(C(=N)N)cc2OCc2ccccc2)c1 [Example 242]	> 30 µM
